- target: BCRP (ABCG2) (Homo sapiens, UniProt Q9UNQ0)
- Sequence (Q9UNQ0 whole entry): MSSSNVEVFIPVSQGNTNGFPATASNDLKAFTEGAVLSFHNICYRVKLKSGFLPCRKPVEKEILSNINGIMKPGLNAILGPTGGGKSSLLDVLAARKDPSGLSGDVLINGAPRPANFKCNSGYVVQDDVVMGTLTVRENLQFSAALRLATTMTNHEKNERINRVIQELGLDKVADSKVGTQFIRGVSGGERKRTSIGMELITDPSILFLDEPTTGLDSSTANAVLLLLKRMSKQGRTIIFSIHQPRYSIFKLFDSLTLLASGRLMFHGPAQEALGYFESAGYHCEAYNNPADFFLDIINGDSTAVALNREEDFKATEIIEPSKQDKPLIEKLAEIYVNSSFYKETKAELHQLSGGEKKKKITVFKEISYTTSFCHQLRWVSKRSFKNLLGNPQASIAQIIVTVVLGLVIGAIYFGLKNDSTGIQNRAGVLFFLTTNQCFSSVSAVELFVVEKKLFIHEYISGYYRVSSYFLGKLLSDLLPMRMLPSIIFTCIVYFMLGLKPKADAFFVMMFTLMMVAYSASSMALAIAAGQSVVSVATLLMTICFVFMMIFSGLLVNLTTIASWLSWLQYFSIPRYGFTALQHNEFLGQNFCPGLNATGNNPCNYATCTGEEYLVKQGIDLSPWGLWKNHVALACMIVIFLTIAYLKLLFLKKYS
- test.description: Inhibition of BCRP (unknown origin) expressed in dog MDCK-II cells assessed as maximum inhibition using pheophorbide A as substrate preincubated for 20 mins followed by substrate addition and measured after 120 mins by flow cytometry analysis relative to control
- Assay type: cell-based
- experimental.context: probe pheophorbide A, time 140 min, read-out: Imax
property.measured: Emax at 2 h

*Q* What does the record list as Emax at 2 h for c1ccc(CCN2CCN(c3ncnc4c3[nH]c3ccccc34)CC2)cc1 ?
*A* 28%

* * *

- Tested on: P-gp (ABCB1)
- test.description: Therapeutic index, ratio of GI50 for antiproliferative activity against human A2780 ADR cells to IC50 for inhibition of P-gp (unknown origin)
- Assay type: toxicity, cell-based
property.measured: selectivity ratio
Give the figure only, with no unit attached.

*Q* What does the record list as selectivity ratio for N#Cc1cn(CCCc2ccccc2)c2c(N3CCN(CCc4c[nH]c5ccccc45)CC3)ncnc12 ?
*A* 9.4

Value source: ChEMBL document CHEMBL5260824
